target: T1, human IgE CH3-CH4-M1′/Fc fusion protein (human); test: SPR Biacore 2000, IgG immobilized, M1′-Fc analyte
T1 construct: also called M1′ (immobilized)
T1 sequence (chain, as listed by the source limits assumed): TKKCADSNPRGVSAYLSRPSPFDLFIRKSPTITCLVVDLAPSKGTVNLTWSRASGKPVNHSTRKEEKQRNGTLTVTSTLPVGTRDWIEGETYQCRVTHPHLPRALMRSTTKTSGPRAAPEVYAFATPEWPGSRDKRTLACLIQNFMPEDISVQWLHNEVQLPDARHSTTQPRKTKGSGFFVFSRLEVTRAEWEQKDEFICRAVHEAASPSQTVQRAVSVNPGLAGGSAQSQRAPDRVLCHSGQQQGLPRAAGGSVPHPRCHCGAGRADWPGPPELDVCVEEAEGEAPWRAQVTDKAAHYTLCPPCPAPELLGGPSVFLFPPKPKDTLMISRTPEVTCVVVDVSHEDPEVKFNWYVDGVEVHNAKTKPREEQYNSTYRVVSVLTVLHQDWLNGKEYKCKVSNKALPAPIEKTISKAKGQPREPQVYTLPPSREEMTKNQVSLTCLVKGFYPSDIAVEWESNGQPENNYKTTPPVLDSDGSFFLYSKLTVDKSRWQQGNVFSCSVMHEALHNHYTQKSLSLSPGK
READOUT KIND: Kd (nM)
The figure you give is taken to be in nM; do not add the unit.

Below are worked cases with known answers.
1. humanized anti-IgE/M1′ antibody 47H4.v1 (antibody, V domains shown, direct CDR graft, produced as IgG) VH: EVQLVESGGGLVQPGGSLRLSCAASGFTFSDYGMAWVRQAPGKGLEWVAFISDLAYTIYYADTVTGRFTISRDNSKNTLYLQMNSLRAEDTAVYYCARDNWDAMDYWGQGTLVTVSS VL: DIQMTQSPSSLSASVGDRVTITCRSSQSLVHNNGNTYLHWYQQKPGKAPKLLIYKVSNRFSGVPSRFSGSGSGTDFTLTISSLQPEDFATYYCSQNTLVPWTFGQGTKVEIKR | 3.1
2. murine anti-IgE/M1′ antibody 47H4 (antibody, V domains shown, mIgG1 hybridoma antibody; also called mu47H4; 47H4 mIgG1) VH: EVKLVESGGGLVQPGGSRKLSCAASGFTFSDYGMAWVRQAPGKGPEWVAFISDLAYTIYYADTVTGRFTISRENAKNTLYLEMSSLRSEDTALYYCARDNWDAMDYWGQGTSVTVSS VL: DIVLTQTPLSLPVSLGDQASISCRSSQSLVHNNGNTYLHWYLQKPGQSPKLLIYKVSNRFSGVPDRFSGSGSGTDFTLKISRLEAEDLGVYFCSQNTLVPWTFGGGTKVEIKR | 1.5

The binder listed as humanized anti-IgE/M1′ antibody 47H4.v2 (antibody, V domains shown, produced as IgG) VH: EVQLVESGGGLVQPGGSLRLSCAASGFTFSDYGMAWVRQAPGKGLEWVAFISDLAYTIYYADTVTGRFTISRDNSKNTLYLQMNSLRAEDTAVYYCARDNWDAMDYWGQGTLVTVSS VL: DIQMTQSPSSLSASVGDRVTITCRSSQSLVHNNANTYLHWYQQKPGKAPKLLIYKVSNRFSGVPSRFSGSGSGTDFTLTISSLQPEDFATYYCSQNTLVPWTFGQGTKVEIKR shows Kd equal to 2.8
